Biological target: T1, mouse vascular endothelial growth factor receptor-2 Fc chimera (Flk-1-Fc) (mouse, UniProt P35918 20-762)
T1 construct: Bought from R&D Systems; also called mouse VEGFR-2; not shown: Fc part of the purchased chimera, not specified
T1 sequence (P35918 20-762, change not shown): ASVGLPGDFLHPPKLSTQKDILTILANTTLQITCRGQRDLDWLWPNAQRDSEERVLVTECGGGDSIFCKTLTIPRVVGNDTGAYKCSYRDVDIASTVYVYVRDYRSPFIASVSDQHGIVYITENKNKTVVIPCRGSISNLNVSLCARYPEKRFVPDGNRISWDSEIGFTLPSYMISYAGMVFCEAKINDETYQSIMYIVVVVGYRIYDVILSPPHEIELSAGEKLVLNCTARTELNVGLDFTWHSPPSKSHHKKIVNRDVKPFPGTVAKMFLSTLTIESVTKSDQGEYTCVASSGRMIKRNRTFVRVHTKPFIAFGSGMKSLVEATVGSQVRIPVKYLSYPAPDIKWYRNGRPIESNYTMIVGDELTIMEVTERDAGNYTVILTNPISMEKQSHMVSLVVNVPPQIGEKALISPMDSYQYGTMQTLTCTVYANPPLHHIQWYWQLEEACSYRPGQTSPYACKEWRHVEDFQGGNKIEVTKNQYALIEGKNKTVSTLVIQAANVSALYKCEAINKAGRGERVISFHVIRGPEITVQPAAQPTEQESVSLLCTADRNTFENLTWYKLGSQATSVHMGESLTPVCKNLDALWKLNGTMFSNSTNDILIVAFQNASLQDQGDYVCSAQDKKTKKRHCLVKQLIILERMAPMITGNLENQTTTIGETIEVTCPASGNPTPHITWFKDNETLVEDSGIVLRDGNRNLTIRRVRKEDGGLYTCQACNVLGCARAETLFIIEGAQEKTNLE
Assay: radioactive equilibrium binding assay, 1 nM Flk-1-Fc, % of input bound

binder	Binding to 1 nM Flk-1, %
E27 (designed binder, 10Fn3 clone, Del 1-8) EVVAATPTSLLISWRHPHFPTRYYRITYGETGGNSPVQEFTVPLQPPTATISGLKPGVDYTITGYAVTVERNGHTLMTPISINYRT	9%
F11 (designed binder, 10Fn3 clone, Del 1-8) EVVAATPTSLLISWRHPHFPTRYYRITYGETGGNSPVQEFTVPLQPPTATISGLKPGVDYTITGYAVTVEQNGRVLNTPISINYRT	8%
B7, B8 (designed binder, 10Fn3 clone, Del 1-8) EVVAATPTSLLISWRHPHFPTRYYRITYGETGGNSPVQEFTVPLQPPTATISGLKPGVDYTITGYAVTVERNGRELLTPISINYRT	10%
A12 (designed binder, 10Fn3 clone, Del 1-8) EVVAATPTSLLISWRHPHFPTRYYRITYGETGGNSPVQEFTVPLQPPTATISGLKPGVDYTITGYAVTVEWNGRVLMTPISINYRT	10%
E29 (designed binder, 10Fn3 clone, Del 1-8) EVVAATPTSLLISWRHPHFPTRYYRITYGETGGNSPVQEFTVPLQPPTATISGLKPGVDYTITGYAVTVERNGRVLMTPISINYRT	44%
